Hello, the source for this data is paper PMC10726135, in case you need it.

Target: HNF4alpha8 (COS-7 nuclear extract) (Homo sapiens, UniProt P41235-5 1-452)
Sequence: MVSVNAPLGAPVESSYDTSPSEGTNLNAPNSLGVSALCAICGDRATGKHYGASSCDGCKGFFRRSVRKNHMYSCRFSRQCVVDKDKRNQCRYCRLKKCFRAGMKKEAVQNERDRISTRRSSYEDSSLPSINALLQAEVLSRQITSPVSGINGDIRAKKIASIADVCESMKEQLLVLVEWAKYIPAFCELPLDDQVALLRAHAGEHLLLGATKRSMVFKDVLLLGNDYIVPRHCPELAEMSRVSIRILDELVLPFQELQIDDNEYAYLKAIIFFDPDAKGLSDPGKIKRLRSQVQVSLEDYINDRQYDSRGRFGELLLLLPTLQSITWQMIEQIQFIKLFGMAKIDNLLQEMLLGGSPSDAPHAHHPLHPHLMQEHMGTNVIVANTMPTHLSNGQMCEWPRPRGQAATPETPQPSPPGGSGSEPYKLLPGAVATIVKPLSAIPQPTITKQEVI
Assay: protein-binding microarray; COS-7 nuclear extract on double-stranded Agilent 4x180k PBM; binding buffer, salt, pH and temperature not given in the material; high values mean tight binding
Details: chain copies: 2; label: 3' end of strand 1 on the slide; dsDNA, one strand shown
Whole data set: some 18,000 sequences, median “log2 normalized intensity” near 0.36, cut for the highest 2% near 7.3. The entries come from a sample that favours the highest values as a whole.
Lab note: compare binding signal with 4 log2 normalized intensity, writing MET if less and NOT MET if equal or more.

Exam item: Dear colleague, could you confirm whether binding signal of GGCGCCGCTCTGAGTGACCTTTCACCCGCGGCCTAGGGAGATTAGAGTATCGGTCGA falls below 4 log2 normalized intensity? Thanks.
Marked response: NOT MET

Exam item: Dear colleague, could you confirm whether binding signal of TGTTTATCAGAGCAAAGTTCAATTTCCAACGCCTAGGGAGATTAGAGTATCGGTCGA falls below 4 log2 normalized intensity? Thanks.
Marked response: NOT MET

Exam item: Dear colleague, could you confirm whether binding signal of AAACAGACCTCTCTCTCCCCAGACAGCCACGCCTAGGGAGATTAGAGTATCGGTCGA falls below 4 log2 normalized intensity? Thanks.
Marked response: MET

Exam item: Dear colleague, could you confirm whether binding signal of CGCTCTGAGTGACCTTTCACCCGCGCCCAGGCCTAGGGAGATTAGAGTATCGGTCGA falls below 4 log2 normalized intensity? Thanks.
Marked response: NOT MET

Exam item: Dear colleague, could you confirm whether binding signal of TTCCCTAAGATTCTGGTCAAAGGTCAATGAGCCTAGGGAGATTAGAGTATCGGTCGA falls below 4 log2 normalized intensity? Thanks.
Marked response: NOT MET

Exam item: Dear colleague, could you confirm whether binding signal of GCAAAGGTCAGCTCATTCCCTAGGGCTCGGGCCTAGGGAGATTAGAGTATCGGTCGA falls below 4 log2 normalized intensity? Thanks.
Marked response: MET

Exam item: Dear colleague, could you confirm whether binding signal of CGCCGGGCGCCGCTCTGAGTGACCTTTCACGCCTAGGGAGATTAGAGTATCGGTCGA falls below 4 log2 normalized intensity? Thanks.
Marked response: NOT MET

Exam item: Dear colleague, could you confirm whether binding signal of CAGCTGTCGTGTGAATAGCACTGACCAGCTGCCTAGGGAGATTAGAGTATCGGTCGA falls below 4 log2 normalized intensity? Thanks.
Marked response: MET

Exam item: Dear colleague, could you confirm whether binding signal of ATTCATTCCCTAAGATTCTGGTCAAAGGTCGCCTAGGGAGATTAGAGTATCGGTCGA falls below 4 log2 normalized intensity? Thanks.
Marked response: NOT MET
